Value source: paper PMC4154765

- assay system: MR DBD (human, UniProt P08235 593-671)
- Sequence (P08235 593-671): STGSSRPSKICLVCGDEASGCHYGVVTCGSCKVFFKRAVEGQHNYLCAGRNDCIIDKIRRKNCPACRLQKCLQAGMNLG
- procedure summary: fluorescence polarization; 10 nM DNA; slight positive cooperativity; endpoint called affinity; FP: 100 mM NaCl, 20 mM Tris-HCl pH 7.4, 5% glycerol, 10 nM FAM-GRE; temperature not stated
- particulars: protein: recombinant; tags: 6xHis (pMCSG7 vector); chain copies: 2; label: 5' 6-FAM on strand 1; blunt
readout: Kd (nM)
Answer with a number only, understood to be in nM.

Q: Entry FAM-GRE (dsDNA) DNA 1: CCAGAACAGAGTGTTCTGA DNA 2: TCAGAACACTCTGTTCTGG : reported Kd = ?
Result: 55
